- TARGET_OR_TEST_SYSTEM: T1, human IL-1α (human, UniProt P01583 113-271)
- T1 sequence: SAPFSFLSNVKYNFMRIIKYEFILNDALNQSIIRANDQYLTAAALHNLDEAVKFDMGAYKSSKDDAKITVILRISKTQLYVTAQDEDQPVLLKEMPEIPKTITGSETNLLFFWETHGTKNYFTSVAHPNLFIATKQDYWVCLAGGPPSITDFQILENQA
- PROTOCOL_NOTES: cell-based or functional assay
QUANTITY_NAME: Potency on hIL-1α (pM); inhibition of IL-1α induced hIL-8 production by MRC-5 cells
// note: answer is a bare numeric in pM

Recorded Potency on hIL-1α (pM); inhibition of IL-1α induced hIL-8 production by MRC-5 cells, per entry:
# BINDER, QUANTITATIVE_RESULT
measured = [
    ("3D12-362-10 (antibody, V domains shown, no constant regions are stated for these clones; The humanized parents used human IgG1 with L234A/L235A and human kappa) VH: EVQLVQSGAEVKKPGVSVKVSCKASGYTFTTYGMHWVRQAPGQGLEWMGWINTYTGESTYADDFQGRVTFTLDTSTSTAYMELSSLRSEDTAVYFCARGIYYYGSSYAMNYWGQGTTVTVSS VL: DIQMTQSPSSLSASVGDRVTITCRASQDISNCLNWYQQKPGKTPKLLIYYTSRLHSGVPSRFSGSGSGTDYTFTISSLQPEDIATYFCQQGKTLPYAFGQGTKLEIKR", 4.8),
    ("3D12-372-10 (antibody, V domains shown, no constant regions are stated for this clone) VH: EIQLVQSGAEVKKPGASVKVSCKASGYTFTNYGMNWVRQAPGQGLEWMGWINTYTGESTYADDFKGRFTFTLDTSTSTAYMELSSLRSEDTAVYFCARGIYYYGSSYAMDYWGQGTTVTVSS VL: DIQMTQSPSSLSASVGDRVTITCRASQDISDMLNWYQQKPGKTPKLLIYHTSRLYSGVPSRFSGSGSGTDYTFTISSLQPEDIATYFCQQGKTLPPAFGQGTKLEIKR", 49.9),
]

Qu. Returns the measured Potency on hIL-1α (pM); inhibition of IL-1α induced hIL-8 production by MRC-5 cells for the input binder. Input: 3D12-362-10/372-10 (antibody, V domains shown) VH: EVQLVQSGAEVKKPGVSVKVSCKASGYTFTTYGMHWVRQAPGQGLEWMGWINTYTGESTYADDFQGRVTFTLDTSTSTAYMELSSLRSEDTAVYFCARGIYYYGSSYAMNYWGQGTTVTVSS VL: DIQMTQSPSSLSASVGDRVTITCRASQDISDMLNWYQQKPGKTPKLLIYHTSRLYSGVPSRFSGSGSGTDYTFTISSLQPEDIATYFCQQGKTLPPAFGQGTKLEIKR
Ans. 29.3

Qu. Returns the measured Potency on hIL-1α (pM); inhibition of IL-1α induced hIL-8 production by MRC-5 cells for the input binder. Input: 3D12-372-15 (antibody, V domains shown, no constant regions are stated for this clone) VH: EIQLVQSGAEVKKPGASVKVSCKASGYTFTNYGMNWVRQAPGQDLEWMGWINTYTGESTYADDFKGRFTFTLDTSTSTAYMELSSLRSEDTAVYFCARGIYYYGSSYAMDYWGQGTTVTVSS VL: DIQMTQSPSSLSASVGDRVTITCRASQDISNMLNWYQQKPGKTPKLLIYYTSRLYPGVPSRFSGSGSGTDYTFTISSLQPEDIATYFCQQGKTLPYAFGQGTKLEIKR
Ans. 38.6
